target_or_system: human Cereblon WT GST-tagged protein (Homo sapiens, UniProt Q96SW2)
Construct: purchased CISBIO 64BDCRBNPEH
Sequence (Q96SW2 whole entry): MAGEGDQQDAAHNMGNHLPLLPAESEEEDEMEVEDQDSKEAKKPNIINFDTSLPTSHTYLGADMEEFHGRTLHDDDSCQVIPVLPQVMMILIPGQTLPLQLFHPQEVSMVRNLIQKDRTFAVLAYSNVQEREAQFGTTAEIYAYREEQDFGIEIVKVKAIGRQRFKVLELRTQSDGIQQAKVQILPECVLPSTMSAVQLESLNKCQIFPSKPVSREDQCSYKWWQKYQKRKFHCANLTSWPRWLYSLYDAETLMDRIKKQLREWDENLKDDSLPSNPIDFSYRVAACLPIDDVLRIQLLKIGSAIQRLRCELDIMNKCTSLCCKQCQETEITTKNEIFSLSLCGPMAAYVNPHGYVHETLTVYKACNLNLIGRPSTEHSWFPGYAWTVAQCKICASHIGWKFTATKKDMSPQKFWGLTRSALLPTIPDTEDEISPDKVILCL
protocol: CRBN-binding affinity, HTRF (CEREBLON BINDING kit)
assay_context: read-out: Inhibition Rate at 0.5 µM (%)
Would you mind telling me the reported inhibition at 0.5 µM of each entry?

Requested field: inhibition at 0.5 µM. Item: Cc1cscc1C1CCN(Cc2cccc3c2CN(C2CCC(=O)NC2=O)C3=S)CC1 (centres unmarked)
53 to 60%

Same question, O=C1CCC(N2Cc3c(CN4CC=C(c5ncnc6sc(-c7ccccc7)cc56)CC4)cccc3C2=S)C(=O)N1 (centres unmarked) this time
53 to 60%

Same question, Cc1sc2ncnc(N3CCCN(Cc4cccc5c4CN(C4CCC(=O)NC4=O)C5=S)CC3)c2c1C (centres unmarked) this time
53 to 60%

Same question, O=C1CCC(N2Cc3c(CN4CCN(c5c(Cl)cncc5Cl)CC4)cccc3C2=S)C(=O)N1 (centres unmarked) this time
60 to 80%

Same question, O=C1CCC(N2Cc3cc(CN4CCN(c5ccnc(Br)c5F)CC4)ccc3C2=S)C(=O)N1 (centres unmarked) this time
60 to 80%

Same question, O=C1CCC(N2Cc3cc(CN4CCN(c5cc(Cl)nnc5Cl)CC4)ccc3C2=S)C(=O)N1 (centres unmarked) this time
60 to 80%

Same question, O=C1CCC(N2Cc3c(CN4CCN(c5cccc(F)n5)CC4)cccc3C2=S)C(=O)N1 (centres unmarked) this time
60 to 80%

Same question, Cc1cc2c(C3CCN(Cc4ccc5c(c4)CN(C4CCC(=O)NC4=O)C5=S)CC3)ncnc2s1 (centres unmarked) this time
60 to 80%
